Assay: self-splicing fitness, log relative to wild type (ln ratio); higher = more splicing; Tetrahymena group I intron in knt gene, E. coli kanamycin selection, DiMSum; sequences stand for … in CUCUCU…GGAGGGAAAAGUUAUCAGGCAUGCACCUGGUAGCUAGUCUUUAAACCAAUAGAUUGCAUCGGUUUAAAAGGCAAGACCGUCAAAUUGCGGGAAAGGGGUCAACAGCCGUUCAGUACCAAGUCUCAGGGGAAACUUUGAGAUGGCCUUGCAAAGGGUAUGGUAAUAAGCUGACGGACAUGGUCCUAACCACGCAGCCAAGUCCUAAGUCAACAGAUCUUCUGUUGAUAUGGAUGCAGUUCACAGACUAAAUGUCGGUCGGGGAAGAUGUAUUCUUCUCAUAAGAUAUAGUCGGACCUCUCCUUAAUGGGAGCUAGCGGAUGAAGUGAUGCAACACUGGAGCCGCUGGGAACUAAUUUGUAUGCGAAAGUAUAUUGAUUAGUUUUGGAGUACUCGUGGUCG;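 further: selection with 25 µg/mL kanamycin versus none on LB agar overnight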
Settings: 30 °C
Record rule met whenever self-splicing fitness (ln) is at -3 or higher; record rule not met when lower.

Incoming: Does the reported self-splicing fitness (ln) for AUGAAGCAAUAUUACGAAGG fall at or above the -3 mark?
Outgoing: rule met

Incoming: Decide: is the reported value of self-splicing fitness (ln) for UAUCAGCAAUAUUACGUAGA equal to or greater than -3?
Outgoing: rule met

Incoming: Tell me whether self-splicing fitness (ln) is at least -3 here: CGAGAGCAAUAUUACGCAAC
Outgoing: rule met

Incoming: Answer whether self-splicing fitness (ln) of GAGAAGCAAUAUUACGUGGU is greater than or equal to -3.
Outgoing: rule not met

Incoming: Decide: is the reported value of self-splicing fitness (ln) for GAGCAGCAAUAUUACGAGUU equal to or greater than -3?
Outgoing: rule met

Incoming: // inclusive: self-splicing fitness (ln) at least -3? input: CCACAGCAAUAUUACGACCC
Outgoing: rule not met

Incoming: Is self-splicing fitness (ln) at least -3? Consider GCGCAGCAAUAUUACGGUCA
Outgoing: rule met

Incoming: Decide: self-splicing fitness (ln) of UCCCAGCAAUAUUACGACGU >= -3?
Outgoing: rule met

Incoming: Threshold query (self-splicing fitness (ln) >= -3) on UACGAGCAAUAUUACGUGAG
Outgoing: rule not met

Incoming: Can UAGAAGCAAUAUUACGCUAU be said to have self-splicing fitness (ln) at or above -3?
Outgoing: rule not met

Incoming: Is self-splicing fitness (ln) for UAUAAGCAAUAUUACGUAUA at or above -3?
Outgoing: rule met

Incoming: Is it the case that CCAGAGCAAUAUUACGUCCG has self-splicing fitness (ln) reaching or exceeding -3?
Outgoing: rule met

Incoming: Evaluate CCCCAGCAAUAUUACGGAUA : self-splicing fitness (ln) at minimum -3?
Outgoing: rule not met

Incoming: Does the reported self-splicing fitness (ln) for CAGGAGCAAUAUUACGUCCA fall at or above the -3 mark?
Outgoing: rule met

Incoming: Does the reported self-splicing fitness (ln) for UAGCAGCAAUAUUACGUCCG fall at or above the -3 mark?
Outgoing: rule met

Incoming: Hi, just wondering whether GUCUAGCAAUAUUACGUGUA shows self-splicing fitness (ln) of -3 or higher.
Outgoing: rule met

Incoming: Form field: self-splicing fitness (ln) at least -3? Entry: GGAUAGCAAUAUUACGCUGA
Outgoing: rule met

Incoming: Form field: self-splicing fitness (ln) at least -3? Entry: AGCGAGCAAUAUUACGAUAG
Outgoing: rule not met
